Experiment: pH-dependent solubility in aqueous buffer
Conditions: pH 6.2, aqueous buffer
endpoint: solubility (µg/mL)
Give a bare numeral; the unit µg/mL is implied.

input: Name the recorded solubility for `O=C1CN=C(c2ccccc2Cl)c2cc([N+](=O)[O-])ccc2N1` .
output: 8

----------
Assay: pH-dependent solubility in aqueous buffer
Conditions: pH 3.8, aqueous buffer
endpoint: solubility (µg/mL)
Give a bare numeral; the unit µg/mL is implied.

input: Name the recorded solubility for `O=C1CN=C(c2ccccc2Cl)c2cc([N+](=O)[O-])ccc2N1` .
output: 9.2

----------
Assay: physchem
Conditions: pH 3.2, aqueous buffer, Solubility of Ondansetron HCl in Aqueous Buffer
Structures can show the parent of a compound that is named as a salt.
endpoint: solubility (mg/mL)
Give a bare numeral; the unit mg/mL is implied.

input: Name the recorded solubility for Cc1nccn1CC1CCc2c(c3ccccc3n2C)C1=O (stereo not shown) [Ondansetron HCl, ondansetron hydrochloride] .
output: 25.7

----------
Assay: physchem
Conditions: pH 7.02, aqueous buffer, Solubility of Iloperidone in Aqueous Buffer
endpoint: solubility (µg/mL)
Give a bare numeral; the unit µg/mL is implied.

input: Name the recorded solubility for `COc1cc(C(C)=O)ccc1OCCCN1CCC(c2noc3cc(F)ccc23)CC1` .
output: 11

----------
Experiment: physchem
Conditions: pH 6.2, aqueous buffer, Solubility of Ondansetron HCl in Aqueous Buffer
Counter-ions that a name gives are not always drawn.
endpoint: solubility (mg/mL)
Give a bare numeral; the unit mg/mL is implied.

input: Name the recorded solubility for Cc1nccn1CC1CCc2c(c3ccccc3n2C)C1=O (stereo not shown) [Ondansetron HCl, ondansetron hydrochloride] .
output: 0.4

----------
Assay: Solubility in organic acid buffers (fumaric, aspartic, glutamic acid)
Conditions: pH 2.8, aqueous buffer
endpoint: solubility (µg/mL)
Give a bare numeral; the unit µg/mL is implied.

input: Name the recorded solubility for `O=C1CN=C(c2ccccc2Cl)c2cc([N+](=O)[O-])ccc2N1` .
output: 10.3

----------
Experiment: physchem
Conditions: pH 7, aqueous buffer, Solubility of Ondansetron HCl in Aqueous Buffer
Counter-ions that a name gives are not always drawn.
endpoint: solubility (µg/mL)
Give a bare numeral; the unit µg/mL is implied.

input: Name the recorded solubility for Cc1nccn1CC1CCc2c(c3ccccc3n2C)C1=O (stereo not shown) [Ondansetron HCl, ondansetron hydrochloride] .
output: 25

----------
Test: physchem
Settings: pH 4.2, aqueous buffer, Solubility of Ondansetron HCl in Aqueous Buffer
Structures can show the parent of a compound that is named as a salt.
endpoint: solubility (mg/mL)
Give a bare numeral; the unit mg/mL is implied.

input: Name the recorded solubility for Cc1nccn1CC1CCc2c(c3ccccc3n2C)C1=O (stereo not shown) [Ondansetron HCl, ondansetron hydrochloride] .
output: 10.9

----------
Experiment: physchem
Conditions: pH 6.11, aqueous buffer, Solubility of Iloperidone in Aqueous Buffer
endpoint: solubility (µg/mL)
Give a bare numeral; the unit µg/mL is implied.

input: Name the recorded solubility for COc1cc(C(C)=O)ccc1OCCCN1CCC(c2noc3cc(F)ccc23)CC1 [Iloperidone] .
output: 117

----------
Test: physchem
Details: pH 5.6, aqueous buffer, Solubility of Ondansetron HCl in Aqueous Buffer
Where a name gives a salt, the structure may show the parent alone.
endpoint: solubility
The reply should consist of the numeric value with the unit placed after it.

input: Name the recorded solubility for Cc1nccn1CC1CCc2c(c3ccccc3n2C)C1=O (stereo not shown) [Ondansetron HCl, ondansetron hydrochloride] .
output: 1700 µg/mL
